- study-target: 5'-nucleotidase (Homo sapiens)
- procedure-text: Binding affinity to human recombinant Ecto-5'-nucleotidase assessed as inhibition constant
observation-type: Ki
Dear colleague, please send the value followed by its unit.

Kindly note the recorded Ki for Cc1ccc(C(=O)N2CCc3cc(-c4nc(NC(=O)CN5CCc6ccccc6C5)sc4C)ccc32)cc1 , which is 530 nM

====

- study-target: 5'-nucleotidase (Homo sapiens)
- procedure-text: Inhibition of human recombinant Ecto-5'-nucleotidase
Listed here: items and their measured IC50.

{"columns": ["input-smiles", "observation-type", "obs-value"],
 "data": [
  ["CC(=O)c1cc2ccccc2oc1=O", "IC50", "4.66 µM"],
  ["O=C(CSc1nnc(-c2c[nH]c3ccccc23)n1Cc1ccccc1)NO", "IC50", "6.2 µM"]
]}

Kindly note the recorded IC50 for C/C(=N\NS(=O)(=O)c1ccccc1)c1cc2ccccc2oc1=O , which is 0.29 µM

====

Listed here: items and their measured IC50.
- study-target: 5'-nucleotidase (Mus musculus)
- Sequence (Q61503 whole entry): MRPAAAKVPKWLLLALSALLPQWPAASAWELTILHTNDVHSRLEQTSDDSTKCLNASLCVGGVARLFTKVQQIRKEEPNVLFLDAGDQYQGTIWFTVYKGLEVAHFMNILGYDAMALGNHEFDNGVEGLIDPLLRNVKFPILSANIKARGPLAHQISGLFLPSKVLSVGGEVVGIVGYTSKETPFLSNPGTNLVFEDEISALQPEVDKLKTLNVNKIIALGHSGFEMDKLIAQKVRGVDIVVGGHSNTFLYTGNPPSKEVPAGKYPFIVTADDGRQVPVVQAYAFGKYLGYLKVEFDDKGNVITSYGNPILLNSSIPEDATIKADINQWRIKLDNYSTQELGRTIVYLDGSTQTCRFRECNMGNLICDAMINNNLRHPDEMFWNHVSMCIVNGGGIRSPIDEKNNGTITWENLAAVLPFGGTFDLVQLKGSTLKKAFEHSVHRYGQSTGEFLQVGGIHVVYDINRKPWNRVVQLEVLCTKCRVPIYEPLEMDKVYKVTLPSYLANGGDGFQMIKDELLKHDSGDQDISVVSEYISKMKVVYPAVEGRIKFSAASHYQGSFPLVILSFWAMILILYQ
- procedure-text: Inhibition of mouse Ecto-5'-nucleotidase
Dear colleague, please send the value followed by its unit.

{"columns": ["input-smiles", "IC50"],
 "data": [
  ["COc1ccc(/C=N/NC(=O)c2ccccc2)cc1", "13800 nM"],
  ["C=Cn1cc[n+](Cc2ccc(O)c(C=O)c2)c1", "1930 nM"]
]}

With those in mind, consider the next molecule.
Kindly note the recorded IC50 for COc1cc(/C=N/NC(=O)c2ccccc2)ccc1O , which is 680 nM

====

- study-target: 5'-nucleotidase (Homo sapiens, UniProt P21589)
- Sequence (P21589 whole entry): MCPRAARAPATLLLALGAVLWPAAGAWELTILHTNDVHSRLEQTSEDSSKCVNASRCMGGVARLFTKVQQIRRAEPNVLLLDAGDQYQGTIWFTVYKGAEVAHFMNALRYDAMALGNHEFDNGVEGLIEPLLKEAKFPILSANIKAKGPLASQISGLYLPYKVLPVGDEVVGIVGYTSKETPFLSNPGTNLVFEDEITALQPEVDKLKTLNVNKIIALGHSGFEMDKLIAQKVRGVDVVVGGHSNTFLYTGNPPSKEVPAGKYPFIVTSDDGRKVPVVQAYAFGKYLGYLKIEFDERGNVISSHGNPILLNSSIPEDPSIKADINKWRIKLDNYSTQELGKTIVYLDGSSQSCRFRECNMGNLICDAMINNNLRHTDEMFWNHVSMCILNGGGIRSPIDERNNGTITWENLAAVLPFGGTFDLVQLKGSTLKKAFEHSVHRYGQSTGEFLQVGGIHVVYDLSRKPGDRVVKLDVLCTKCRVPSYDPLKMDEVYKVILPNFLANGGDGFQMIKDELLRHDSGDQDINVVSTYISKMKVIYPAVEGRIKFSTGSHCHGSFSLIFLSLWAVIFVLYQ
- procedure-text: Inhibition of recombinant CD73 (unknown origin)
observation-type: IC50 (nM)
Express your answer in nM, writing the number without its unit.

Kindly note the recorded IC50 for O=P(O)(O)CP(=O)(O)C[C@@H](O)[C@H]1O[C@@H](n2cc(-c3cc(C(F)(F)F)cc(C(F)(F)F)c3)nn2)[C@H](O)[C@@H]1O , which is 4800

Kindly note the recorded IC50 for O=P(O)(O)CP(=O)(O)C[C@@H](O)[C@H]1O[C@@H](n2cc(-c3ccc4ccccc4c3)nn2)[C@H](O)[C@@H]1O , which is 860

Reference source: ChEMBL document CHEMBL5360533
